experiment: Cmax in monkey at 10 mg/kg, po; type: ADME, organism-based, Macaca mulatta; design: dose 10 mg/kg, route oral; details: rhesus monkey, in vivo
attributeMeasured: Cmax (ng/mL)
Answer with a number only, understood to be in ng/mL.

INPUT: # query: Cmax of entry Cc1cc2cc(N=C(NC(=O)c3ccc(C(=O)N(C)C)nc3)N[C@H]3CCCCN(CC(=O)N4CCCC4)C3=O)ccc2o1
OUTPUT: 2100

====

assay: Oral bioavailability in monkey at 10 mg/kg; type: ADME, organism-based, Macaca mulatta; details: rhesus monkey, in vivo
attributeMeasured: bioavailability (%)
Dear colleague, please return just the value in %, with no unit written.

INPUT: Reported bioavailability for Cc1cc2cc(N=C(NC(=O)c3ccc(C(=O)N(C)C)nc3)N[C@H]3CCCCN(CC(=O)N4CCCC4)C3=O)ccc2o1 : what is it?
OUTPUT: 28

The reported measurements were obtained from ChEMBL document CHEMBL1156750.
